Origin of values: PubChem BioAssay (NCATS)

# Test system: KB-3-1
# Assay notes: Cytotoxic Profiling of Annotated Libraries Using Quantitative High-Throughput Screening (AID 1296008); also: % is scaled to controls: 0 for no effect and ±100 for the full control effect; nearly all actives have a fitted effect of over 60% in size
# Recorded conditions: Five cell lines viability, CellTiter-Glo ATP luminescence, 48-72 h; hits give low values
Inconclusive results are not listed.
For each entry below, report its max response value.
Answers are plain numbers, in %.

Compound	System under test	Numeric value
O=C(O)c1cn(C2CC2)c2cc(N3CCNCC3)c(F)cc2c1=O	KB-3-1	-1.15
O=NN(CCCl)C(=O)NC1CCCCC1	KB-3-1	2.75
Cc1cc(NS(=O)(=O)c2ccc(N)cc2)no1	KB-3-1	-10.1
O=S(=O)(c1cccc2cnccc12)N1CCCNCC1	KB-3-1	-15.9
NS(=O)(=O)c1cc2c(cc1Cl)NC(C(Cl)Cl)NS2(=O)=O (configuration not stated)	KB-3-1	9.97

List the reported max response of each compound below.
1. Cc1oc(=O)oc1CN1CCN(c2cc3c(cc2F)c(=O)c(C(=O)O)c2n3C(C)S2)CC1 (configuration not stated)
2. Nc1nc(N)nc(-c2cc(Cl)ccc2Cl)n1
3. C[C@@H](CN1CC(=O)NC(=O)C1)N1CC(=O)NC(=O)C1
4. O=c1cc(O)c(Cl)c[nH]1
5. O=S(=O)(O)CCS
6. COc1cc(NS(=O)(=O)c2ccc(N)cc2)nc(OC)n1
7. Oc1c(Cl)cc(Cl)c2cccnc12

1. 23.6
2. -7.71
3. 7.8
4. 2.19
5. 0.578
6. 3.08
7. -16.3
